pIC50: −log10 of the molar value.
Reported pIC50 on UniProtKB P55055 for assorted compounds, compiled from publications.

[
  {
    "cpd smiles": "Cc1nc2c(C(F)(F)F)cccc2nc1-c1cccc(-c2cccc(S(C)(=O)=O)c2)c1",
    "bound operator": "<",
    "pIC50": 6.00
  },
  {
    "cpd smiles": "CC(C)CN(Cc1ccc(-c2cccc(S(C)(=O)=O)c2)s1)S(=O)(=O)C(F)(F)F",
    "bound operator": "=",
    "pIC50": 6.57
  },
  {
    "cpd smiles": "O=C(O)c1cnc(Oc2cccc(-c3c(Cc4ccccc4)cnc4c(C(F)(F)F)cccc34)c2)cn1",
    "bound operator": "=",
    "pIC50": 5.64
  },
  {
    "cpd smiles": "CCc1nc2c(Cl)cccn2c1-c1cccc(Oc2cccc(S(=O)(=O)N(Cc3ccc(OC)cc3)Cc3ccc(OC)cc3)c2)c1",
    "bound operator": "=",
    "pIC50": 6.39
  },
  {
    "cpd smiles": "CSCC[C@H](NC(=O)c1cccc(COc2cccc(-c3c(Cc4ccccc4)cnc4c(C(F)(F)F)cccc34)c2)c1)C(=O)O",
    "bound operator": "=",
    "pIC50": 6.50
  },
  {
    "cpd smiles": "Cc1nc2c(C(F)(F)F)cccc2nc1-c1cc(Oc2ccc(S(=O)(=O)CC#N)cc2)ccc1Cl",
    "bound operator": "<",
    "pIC50": 6.00
  },
  {
    "cpd smiles": "CNCCCS(=O)(=O)c1cccc(Oc2cccc(-c3c(C(C)C)nc4c(C(F)(F)F)cccn34)c2)c1",
    "bound operator": "=",
    "pIC50": 7.04
  }
]

---

pIC50: −log10 of the molar value.
Collected set of pIC50 measured with Oxysterols receptor LXR-beta (Homo sapiens) across studies.

[
  {
    "compound": "CS(=O)(=O)CCCCS(=O)(=O)c1cccc(Oc2ccc(F)c(-c3ncnc4c(C(F)(F)F)cccc34)c2)c1",
    "bound operator": "=",
    "pIC50": 7.18
  },
  {
    "compound": "O=C(O)[C@@H]1CCCN1C(=O)c1ccc(COc2cccc(-c3c(Cc4ccccc4)cnc4c(C(F)(F)F)cccc34)c2)cc1",
    "bound operator": "=",
    "pIC50": 7.21
  },
  {
    "compound": "CC(C)(C)c1nc2c(C(F)(F)F)cccn2c1-c1cccc(Oc2cccc(S(=O)(=O)CCCO)c2)c1",
    "bound operator": "=",
    "pIC50": 8.05
  },
  {
    "compound": "CC(C)N1C(=O)N(S(=O)(=O)c2ccccc2)CC1c1cccc(-c2cc(C#N)ccc2Cl)c1 (stereo not shown)",
    "bound operator": "=",
    "pIC50": 6.30
  },
  {
    "compound": "N#CCCCCS(=O)(=O)c1cccc(Oc2ccc(F)c(-c3ncnc4c(Cl)cccc34)c2)c1",
    "bound operator": "=",
    "pIC50": 6.97
  },
  {
    "compound": "CS(=O)(=O)c1cccc(-c2ccc(CN(Cc3ccccc3)S(=O)(=O)c3ccccc3Cl)s2)c1",
    "bound operator": "=",
    "pIC50": 6.91
  },
  {
    "compound": "CCCS(=O)(=O)c1cc(Cl)cc(Oc2cccc(-c3ncnc4c(C(F)(F)F)cccc34)c2)c1",
    "bound operator": "<",
    "pIC50": 6.00
  },
  {
    "compound": "O=C(O)Cc1ccc2cccc(OCc3cccc(-c4c(Cc5ccccc5)cnc5c(C(F)(F)F)cccc45)c3)c2c1",
    "bound operator": "=",
    "pIC50": 5.92
  },
  {
    "compound": "Cc1cc(NCc2cccc(-c3c(Cc4ccccc4)cnc4c(C(F)(F)F)cccc34)c2)ccc1C(=O)O",
    "bound operator": "=",
    "pIC50": 7.60
  },
  {
    "compound": "CCS(=O)(=O)c1cccc(Oc2cccc(-c3c(C(C)C)nc4c(Cl)cccn34)c2)c1",
    "bound operator": "=",
    "pIC50": 8.02
  },
  {
    "compound": "Cc1cc(NCc2ccc(-c3c(Cc4ccccc4)cnc4c(C(F)(F)F)cccc34)s2)c(C)cc1CC(=O)O",
    "bound operator": "=",
    "pIC50": 8.70
  },
  {
    "compound": "Cc1nc2c(C(F)(F)F)cccc2n1-c1ccc(OCc2cccc(S(C)(=O)=O)c2)cc1",
    "bound operator": "<",
    "pIC50": 6.00
  },
  {
    "compound": "CS(=O)(=O)c1cccc(-c2ccc(CN(CC3CCC3)S(=O)(=O)c3ccccc3C(F)(F)F)s2)c1",
    "bound operator": "=",
    "pIC50": 7.76
  },
  {
    "compound": "Cc1nc(-c2cccc(Oc3cccc(S(C)(=O)=O)c3)c2)c2cccc(C(F)(F)F)c2n1",
    "bound operator": "=",
    "pIC50": 6.36
  },
  {
    "compound": "Cc1cnc2c(C(F)(F)F)cccc2c1-c1cccc(CNc2cccc(F)c2C(=O)O)c1",
    "bound operator": "=",
    "pIC50": 4.99
  },
  {
    "compound": "CNS(=O)(=O)c1cccc(Oc2ccc(Cl)c(-c3ncnc4c(Cl)cccc34)c2)c1",
    "bound operator": "=",
    "pIC50": 7.96
  },
  {
    "compound": "Cc1nc2c(Cl)cccc2n1-c1cccc(Oc2cc(F)cc(S(C)(=O)=O)c2)c1",
    "bound operator": "=",
    "pIC50": 8.46
  },
  {
    "compound": "Cc1cnc2c(C(F)(F)F)cccc2c1-c1cccc(COc2cccc3c(CC(=O)O)cccc23)c1",
    "bound operator": "=",
    "pIC50": 7.89
  },
  {
    "compound": "O=C(O)c1ccc(NCc2cccc(-c3c(Cc4ccccc4)cnc4c(C(F)(F)F)cccc34)c2)c(OC(F)(F)F)c1",
    "bound operator": "=",
    "pIC50": 5.80
  },
  {
    "compound": "CC(C)c1nc2c(Cl)cccn2c1-c1cccc(OCc2cccc(S(C)(=O)=O)c2)c1",
    "bound operator": "=",
    "pIC50": 6.86
  },
  {
    "compound": "Cc1nc2c(Cl)cccc2nc1Oc1cccc(-c2cccc(NS(C)(=O)=O)c2)c1",
    "bound operator": "<",
    "pIC50": 6.00
  },
  {
    "compound": "CS(=O)(=O)c1cccc(-c2cccc(-c3nc(C4CC4)nc4c(C(F)(F)F)cccc34)c2)c1",
    "bound operator": "=",
    "pIC50": 6.82
  },
  {
    "compound": "CS(=O)(=O)c1cccc(Oc2cccc(-c3cnc4c(C(F)(F)F)cccc4n3)c2)c1",
    "bound operator": "<",
    "pIC50": 6.00
  },
  {
    "compound": "CC(C)c1nc2c(Cl)cccn2c1-c1cccc(Oc2ccc(S(N)(=O)=O)cc2)c1",
    "bound operator": "<",
    "pIC50": 6.00
  },
  {
    "compound": "Cc1nc2c(C(F)(F)F)cccc2nc1-c1ccc(Oc2cccc(S(C)(=O)=O)c2)cc1F",
    "bound operator": "<",
    "pIC50": 6.00
  },
  {
    "compound": "Cc1cc(C(=O)O)ccc1C#Cc1cccc(-c2c(Cc3ccccc3)cnc3c(C(F)(F)F)cccc23)c1",
    "bound operator": "=",
    "pIC50": 7.72
  },
  {
    "compound": "NC(=O)CCCS(=O)(=O)c1cccc(Oc2ccc(F)c(-c3ncnc4c(C(F)(F)F)cccc34)c2)c1",
    "bound operator": "=",
    "pIC50": 6.74
  },
  {
    "compound": "Cc1cc2cc(C(O)(C(F)(F)F)C(F)(F)F)ccc2n1Cc1ccccc1",
    "bound operator": "=",
    "pIC50": 7.30
  },
  {
    "compound": "Cc1nc2cccc(C(F)(F)F)c2nc1-c1cc(Oc2cccc(S(C)(=O)=O)c2)ccc1Cl",
    "bound operator": "=",
    "pIC50": 7.43
  },
  {
    "compound": "CC(C)c1cnc2c(C(F)(F)F)cccc2c1-c1cccc(OC(=O)c2ccc(S(C)(=O)=O)cc2)c1",
    "bound operator": "=",
    "pIC50": 7.90
  },
  {
    "compound": "Cc1nc2cccc(C(F)(F)F)c2nc1-c1cc(Oc2ccc(S(C)(=O)=O)cc2)ccc1Cl",
    "bound operator": "<",
    "pIC50": 6.00
  }
]

---

Here's a roundup of IC50 values tested on Oxysterols receptor LXR-beta (Homo sapiens, UniProt P55055), taken from various published works.

[
  {
    "cpd smiles": "CS(=O)(=O)c1cc(Oc2ccc(F)c(-c3ncnc4c(C(F)(F)F)cccc34)c2)ccc1C(N)=O",
    "display unit": "nM",
    "IC50": 1210
  },
  {
    "cpd smiles": "Cc1c(NCc2cccc(-c3c(Cc4ccccc4)cnc4c(C(F)(F)F)cccc34)c2)ccc(C(=O)O)c1C",
    "display unit": "nM",
    "IC50": 3300
  },
  {
    "cpd smiles": "CC(C)c1nc2c(C(F)(F)F)cccn2c1-c1cccc(Oc2cccc(S(=O)(=O)CCCO)c2)c1",
    "display unit": "nM",
    "IC50": 19.8
  },
  {
    "cpd smiles": "Cc1ccc(S(=O)(=O)N(C)C)cc1C(=O)Oc1cccc(-c2c(C)cnc3c(C(F)(F)F)cccc23)c1",
    "display unit": "nM",
    "IC50": 235
  }
]
